Values compiled from PubChem BioAssay AID1159580.

Collected normalized growth values appear next to each entry.
test: chemical genetic growth profiling, strain panel (AID 1159580);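 also: tested at 20 µM; growth read once vehicle control cultures reached saturation at 30 °C; 1 = growth at the plate median or of vehicle wells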; conditions: S. cerevisiae deletion strains, growth OD, locus YNL271C, strain bni1, stronger effect = lower value
The whole screen tested about 5,500 compounds, of which about 2,000 (36%) were called active. Inconclusive results (about 18%) are left out. This is one part of the list.
Enter a number only.

Please review the following examples before continuing.
MOLECULE	normalized growth
COC(=O)[C@]1(C)CC[C@]2(C)CC[C@]3(C)C4=CC=C5C(=CC(=O)C(O)=C5C)[C@]4(C)CC[C@@]3(C)[C@@H]2C1	0.894
CCOC([O-])=Nc1c[n+](N2CCOCC2)no1	0.981

Query molecule follows.
query: Please look at this molecule and report its normalized growth: `CCN(CC)CCNC(=O)c1cc(Cl)c(N)cc1OC`
result: 1

###

experiment: chemical genetic growth profiling, strain panel (AID 1159580); conditions: S. cerevisiae deletion strains, growth OD, locus YIL073C, strain SPO22, stronger effect = lower value
In all, about 5,500 compounds went through this assay and about 2,000 (36%) were called active. Not shown: some 18% with an inconclusive outcome. Some of the results follow.
// returns NO unless normalized growth is strictly below 1, in which case YES

A selection of reference data follows.
MOLECULE	LABEL CLASS
Cc1onc(-c2ccccc2Cl)c1C(=O)N[C@@H]1C(=O)N2[C@@H]1SC(C)(C)[C@@H]2C(=O)O	NO
CCCCc1nc(Cl)c(CO)n1Cc1ccc(-c2ccccc2-c2nn[nH]n2)cc1	NO
CC(NCCC(c1ccccc1)c1ccccc1)c1ccccc1 (stereo not drawn)	NO
Cc1cc(=O)n(-c2ccccc2)n1C	NO
NC(=O)N1c2ccccc2C=Cc2ccccc21	NO
COC1(C)CCC2OC2(C)CCC2C1CC2(C)C (stereo not drawn)	NO

query: Item `CC1=NN(c2ccccc2)C(=O)C1` : normalized growth beneath 1, strictly?
result: YES

###

Collected normalized growth values appear next to each entry.
test: chemical genetic growth profiling, strain panel (AID 1159580); conditions: S. cerevisiae deletion strains, growth OD, locus YHR079C, strain IRE1 (second series), stronger effect = lower value
The whole screen tested about 5,500 compounds, of which about 2,000 (36%) were called active. Inconclusive results (about 18%) are left out. Some of the results follow.
Enter a number only.

COMPOUND	OBS VALUE
COc1ccc(C(=O)c2ccccc2)c(O)c1O	0.932
CCc1cccc2c3c([nH]c12)C(CC)(CC(=O)O)OCC3 (stereo unspecified)	1.01
CC(=O)OCC(=O)[C@@]1(O)CCC2C3CCC4=CC(=O)CC[C@]4(C)C3[C@@H](O)C[C@@]21C (stereo partly specified)	1
C#C[C@]1(O)CCC2C3CCC4=Cc5oncc5C[C@]4(C)C3CC[C@@]21C (stereo partly specified)	0.924
CC(=O)[C@@]1(O)CCC2C3CCC4=CC(=O)CC[C@]4(C)C3CC[C@@]21C (stereo partly specified)	1.01
Cc1cc(C(C)(C)C)c(O)c(C)c1CC1=NCCN1	1.01

query: Please look at this compound and report its normalized growth: `Cc1cc(C(C)(C)C)cc(C)c1CC1=NCCN1`
result: 0.995

query: Please look at this compound and report its normalized growth: `COc1ccc(C(=O)c2ccc(O)cc2)c(O)c1O`
result: 0.985

###

Collected normalized growth values appear next to each entry.
assay: chemical genetic growth profiling, strain panel (AID 1159580); conditions: S. cerevisiae deletion strains, growth OD, locus YEL003W, strain gim4, stronger effect = lower value
Out of some 5,500 compounds screened, about 2,000 (36%) were called active. Another 18% or so got no clear call; they are omitted. Some of the results follow.
Enter a number only.

COMPOUND	normalized growth
CCOc1ccc(C(=O)c2ccc(OC)c(O)c2O)cc1	0.964

query: Please look at this compound and report its normalized growth: `CCOc1ccc(C(=O)c2ccc(O)c(O)c2O)cc1`
result: 0.893

query: Please look at this compound and report its normalized growth: C[C@]12CCC(=O)C=C1CCC1C2[C@@H](O)C[C@@]2(C)C1CC[C@]2(O)C(=O)COC(=O)CCC(=O)O (some centres not stated)
result: 1.03

query: Please look at this compound and report its normalized growth: `NCCc1cc(O)c(O)cc1O`
result: 0.908

query: Please look at this compound and report its normalized growth: COc1cc2c(cc1OC)[C@@H]1C(=O)c3ccc4c(c3O[C@@H]1CO2)CC(C(C)C)O4 (some centres not stated)
result: 0.959

###

test: chemical genetic growth profiling, strain panel (AID 1159580); conditions: S. cerevisiae deletion strains, growth OD, locus YHR205W, strain SCH9
Hit rate of the full screen: of about 5,500 compounds, about 2,000 (36%) were called active. Another 18% or so got no clear call; they are omitted. No stated cut-off is given here; in the data, active means normalized growth mostly below about 0.91 (no sharp cut-off); inconclusive means no clear call, values can overlap the other calls; inactive means mostly above about 0.92. The list shows a part of the results.
Bench note: report the call from Y (active), N (inactive)

A selection of reference data follows.
COMPOUND	LABEL CLASS
N#C/C(=N/Nc1cccc(C(F)(F)F)c1)C(=O)c1csc(-c2cccnc2)n1	N
OC(CSc1ccccc1)CN1CCN(c2nc(-c3ccccc3)ns2)CC1 (stereo unspecified)	N
O=c1c(-c2ccccc2)c(O)c2cccc3c4ccccc4n1c23	Y
CC(C)(C)C(=O)c1sc2sc(C(=O)C(C)(C)C)c(N)c2c1N	N
COc1ccc(C2CC(c3ccc(C)cc3C)=NN2C(C)=O)cc1 (stereo unspecified)	N

query: # lookup: test call for S=C(N/N=C\c1cccs1)NC1CC2CCC1C2 (stereo unspecified)
result: N

query: # lookup: test call for `O=C(NNC(=S)Nc1ccc(Cl)cc1)c1ncc(C(F)(F)F)cc1Cl`
result: N

query: # lookup: test call for `O=c1c(-c2ccccc2)c(O)c2cccc3c4c(n1c23)CCCC4`
result: Y

query: # lookup: test call for `CS/C(Nc1cccc(C(F)(F)F)c1)=C(/C#N)S(=O)(=O)c1ccc(Cl)cc1`
result: N

query: # lookup: test call for `CC(=O)c1ccccc1C(=O)c1ccc(C(C)(C)C)cc1`
result: N

query: # lookup: test call for `C/C(=N/NC(=O)c1ccc(C(C)(C)C)cc1)c1ccccc1O`
result: N

###

experiment: chemical genetic growth profiling, strain panel (AID 1159580);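 also: tested at 20 µM; growth read once vehicle control cultures reached saturation at 30 °C; 1 = growth at the plate median or of vehicle wells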; settings: S. cerevisiae deletion strains, growth OD, locus YGL086W, strain mad1, stronger effect = lower value
The whole screen tested about 5,500 compounds, of which about 2,000 (36%) were called active. Roughly 18% stayed inconclusive and do not appear here. Some of the results follow.
MEASURED QUANTITY: normalized growth
Enter a number only.

MOLECULE	normalized growth
CCc1cccc2c3c([nH]c12)C(CC)(CC(=O)O)OCC3 (stereo unspecified)	1.01

query: Please look at this molecule and report its normalized growth: `COc1ccc(C(=O)O)c(O)c1OC`
result: 0.994

###

Collected normalized growth values appear next to each entry.
assay: chemical genetic growth profiling, strain panel (AID 1159580);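 also: tested at 20 µM; growth read once vehicle control cultures reached saturation at 30 °C; 1 = growth at the plate median or of vehicle wells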; conditions: S. cerevisiae deletion strains, growth OD, locus YDL101C, strain DUN1, stronger effect = lower value
The campaign covered roughly 5,500 compounds. About 2,000 (36%) were called active. Another 18% or so got no clear call; they are omitted. The list shows a part of the results.
Enter a number only.

Please review the following examples before continuing.
MOLECULE	normalized growth
O=c1oc2c(O)c(O)cc3c(=O)oc4c(O)c(O)cc1c4c23	0.598
CC(=O)[O][Hg][c]1ccccc1	0.0592
C[C@]12CCC(=O)C=C1CCC1C2C(=O)C[C@@]2(C)C1CC[C@]2(O)C(=O)CO (stereo partly drawn)	1
NC(=O)NO	1
O=C(Nc1cc2c(s1)-c1cc(Cl)ccc1SC2)Oc1ccccc1	0.989

query: Please look at this molecule and report its normalized growth: `CSc1nc(N)nc(N2CCCCC2)n1`
result: 1

query: Please look at this molecule and report its normalized growth: COP(=O)(OC)OC(Br)C(Cl)(Cl)Br (stereo not drawn)
result: 0.988

query: Please look at this molecule and report its normalized growth: C#CC1(O)CCC2C3CCC4=CC(=O)CCC4(C)C3CCC21C (stereo not drawn)
result: 0.979

query: Please look at this molecule and report its normalized growth: COc1ccc(C2CC(c3ccc(C)cc3C)=NN2C(C)=O)cc1 (stereo not drawn)
result: 0.987

query: Please look at this molecule and report its normalized growth: `COC(=O)c1cc([N+](=O)[O-])ccc1N1CCOCC1`
result: 1.01

query: Please look at this molecule and report its normalized growth: `Cc1c(NC(=O)c2cccnc2)c(=O)n(-c2ccccc2)n1C`
result: 0.981

query: Please look at this molecule and report its normalized growth: C#C[C@]1(O)CCC2C3CCC4=Cc5oncc5C[C@]4(C)C3CC[C@@]21C (stereo partly drawn)
result: 0.906

query: Please look at this molecule and report its normalized growth: `CC(=O)NO`
result: 1.02

###

test: chemical genetic growth profiling, strain panel (AID 1159580);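 also: tested at 20 µM; growth read once vehicle control cultures reached saturation at 30 °C; 1 = growth at the plate median or of vehicle wells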; settings: S. cerevisiae deletion strains, growth OD, locus YLR258W, strain gsy2, stronger effect = lower value
The campaign covered roughly 5,500 compounds. About 2,000 (36%) were called active. Another 18% or so got no clear call; they are omitted. The list shows a part of the results.
Collected normalized growth values appear next to each entry.

SMILES REPR	normalized growth
O=C(O)c1cc(=O)c2c(Cl)cc(Cl)cc2[nH]1	1.02 (inactive)
CCOc1ccc(C(=O)c2ccc(OC)c(O)c2O)cc1	1 (inactive)
CNS(=O)(=O)c1ccc(NC(=O)c2ccccc2C(=O)O)cc1	0.998 (inactive)

query: Please look at this compound and report its normalized growth: `O=C(O)c1cc(=O)c2cccc(O)c2[nH]1`
result: 1.03 (inactive)
